Taken from PubChem BioAssay (NCI).

growth inhibition values by entry
- assay-method-text: NCI Yeast Anticancer Drug Screen. Data for the bub3 strain (AID 167)
- cond: S. cerevisiae bub3 mutant strain, at 50.0 µM, stronger effect = higher value
This is part of a sample that, as a whole, favours compounds with a hit. Of some 79,000 tested, about 15% had one in any assay.
# value in %; strip the unit string

Answered examples (6):
COc1cc(OC(=O)/C=C2/CCC(=O)O2)c2c(c1)OC1OC(=O)CC21 (configuration not stated) : -1.9
O=C(Nc1ccccc1)c1ccc(I)cc1 : 3.95
O=C1OC(=O)C2C1N=NC2(c1ccccc1)c1ccccc1 (configuration not stated) : -1.15
CCOC(=O)/C(C#N)=C/Nc1[nH]c(=O)c(C#N)c(-c2ccc(Cl)cc2)c1SC : 2.1
COc1ccc(C(O)(CCN2CCOCC2)c2ccc3c(c2)OCO3)cc1 (configuration not stated) : 8.6
Cc1ccc(NC(=O)CSc2nnc(Cc3ccccc3)o2)c(C)c1 : -3.3

Recorded result, CN(C)S(=O)(=O)c1ccc(N)c([N+](=O)[O-])c1 , growth inhibition: 7.55

Recorded result, NC(=S)NN/C=C(\C=Nc1ccccc1)[N+](=O)[O-] , growth inhibition: 0.15

Recorded result, C/C(=N/NC(N)=O)c1ccccc1Cl , growth inhibition: -6.7

Recorded result, O=CNc1cccc2c(=O)[nH][nH]c(=O)c12 , growth inhibition: -26.1

Recorded result, COc1ccc(Cl)cc1Cl , growth inhibition: 14.1

Recorded result, COC(=O)c1ccccc1C1CN=NC12Cc1c(ccc3c1CCC3)C2=O (configuration not stated) , growth inhibition: 27.9

----------
- assay-method-text: NCI Yeast Anticancer Drug Screen. Data for the sgs1 mgt1 strain (AID 161);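 also: 0% = growth of cultures given vehicle only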
- cond: S. cerevisiae sgs1 mgt1 strain, at 50.0 µM, stronger effect = higher value
About 79,000 compounds went through this panel and 15% of them were active in at least one assay; those are over-represented in the sample as a whole. Calls of active or inactive are those of the source. Rule as the data show it: active = growth inhibition above about 70%; inactive = the rest.
value-kind: growth inhibition

CCN(C(=S)Nc1cccc2ccccc12)c1ccccc1 : 11.7% (inactive)
CC(=O)Nc1ccc([N+](=O)[O-])cc1[N+](=O)[O-] : -4.05% (inactive)
COc1ccc2c(c1OC)C(Cc1ccccc1)N1CCc3cc4c(cc3C1C2)OCO4 (stereo not drawn) : 48% (inactive)

Recorded result, c1cc(CSC2=NCCN2)ccc1CSC1=NCCN1 , growth inhibition: -9.2% (inactive)

Recorded result, CCCCCOS(C)(=O)=O , growth inhibition: 4.85% (inactive)

----------
- assay-method-text: NCI Yeast Anticancer Drug Screen. Data for the mlh1 rad18 strain (AID 175)
- cond: S. cerevisiae mlh1 rad18 strain growth inhibition; at 50.0 µM; stronger effect = higher value
This is part of a sample that, as a whole, favours compounds with a hit. Of some 79,000 tested, about 15% had one in any assay.
value-kind: growth inhibition (%)
# value in %; strip the unit string

Answered examples (6):
CCCCCCCCCC(=O)N/N=C\c1cccc2ccccc12 : 16.9
CN1CCCCC1CCO (centres undefined) : 14.1
CN(c1ccc(Br)cc1)c1nc(N)nc(N)c1N=O : -1.8
COc1ccc(Nc2nc(NNC(=O)Cc3ccccc3)nc(NNC(=O)c3ccncc3)n2)cc1 : 30.4
CC1(C)[C@@H]2C[C@H]1C(Cc1ccccc1C[C@H]1c3cc(-c4ccccn4)ncc3[C@H]3C[C@@H]1C3(C)C)c1cc(-c3ccccn3)ncc12 (some centres undefined) : -32.4
COC(=O)N/N=C(\C(=O)Nc1cccc([N+](=O)[O-])c1)c1nc2ccc([N+](=O)[O-])cc2[nH]c1=O : -1.25

Recorded result, CNn1c(-c2ccccc2)n[nH]c1=O , growth inhibition: 19.4

Recorded result, CCOC(=O)NC(Nc1cccc(C(F)(F)F)c1)(C(F)(F)F)C(F)(F)F , growth inhibition: -3.3
